Assay: chemical genetic growth profiling, strain panel (AID 1159580);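 further: tested at 20 µM; growth read once vehicle control cultures reached saturation at 30 °C; 1 = growth at the plate median or of vehicle wells; lower values mean less growth of the strain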
Conditions: S. cerevisiae deletion strains, growth OD, locus YLR370C, strain arc18, stronger effect = lower value
Hit rate of the full screen: of about 5,500 compounds, about 2,000 (36%) were called active. Roughly 18% stayed inconclusive and do not appear here. The list shows a part of the results.
Kindly supply the reported normalized growth values for the records listed here.

Qu. Entry CC(C)=CCCC1(C)C=Cc2c(O)c3c(c(CC=C(C)C)c2O1)OC12C(=CCCC1C(C)(C)O[C@@]2(C/C=C(\C)C(=O)O)C(=O)O)C3=O (some centres not stated) : reported normalized growth = ?
Ans. 0.988 (inactive)

Qu. Entry "O=C1c2c(O)cccc2Cc2cccc(O)c21" : reported normalized growth = ?
Ans. 0.985 (inactive)

Qu. Entry "Cc1cc(-n2c(=O)[nH]c(=O)n(C)c2=O)ccc1Oc1ccc(SC(F)(F)F)cc1" : reported normalized growth = ?
Ans. 0.886 (active)

Qu. Entry CC1(C)CC[C@]2(C(=O)O)CC[C@]3(C)C(=CCC4[C@@]5(C)CC[C@@H](O)C(C)(C)C5CC[C@]43C)C2C1 (some centres not stated) : reported normalized growth = ?
Ans. 1 (inactive)

Qu. Entry C#C[C@]1(O)CCC2C3CCC4=CC(=O)CC[C@@H]4C3CC[C@@]21C (some centres not stated) : reported normalized growth = ?
Ans. 0.969 (inactive)

Qu. Entry CC1(C)CC[C@]2(C(=O)O)CC[C@]3(C)C(=CCC4[C@@]5(C)CC[C@H](O)[C@@](C)(CO)C5CC[C@]43C)C2C1 (some centres not stated) : reported normalized growth = ?
Ans. 1.02 (inactive)

Qu. Entry "C/C=C1\[C@H]2C=C(C)C[C@]1(N)c1ccc(=O)[nH]c1C2" : reported normalized growth = ?
Ans. 1.02 (inactive)

Qu. Entry CC(=O)O[C@@H]1CC[C@@]2(C)C(CC[C@]3(C)C2CC=C2C4CC(C)(C)CC[C@]4(C(=O)O)CC[C@]23C)C1(C)C (some centres not stated) : reported normalized growth = ?
Ans. 0.957 (inactive)

Qu. Entry "N=C(N)SCCN" : reported normalized growth = ?
Ans. 1.01 (inactive)

Qu. Entry "Cc1cc(O)cc(O)c1C(=O)O" : reported normalized growth = ?
Ans. 1.01 (inactive)

Qu. Entry "O=C(Nc1ccc(C(=O)O)c(O)c1)c1ccccc1" : reported normalized growth = ?
Ans. 0.975 (inactive)

Qu. Entry "NCCC(=O)N[C@@H](Cc1cnc[nH]1)C(=O)O" : reported normalized growth = ?
Ans. 1.01 (inactive)

Qu. Entry CC(=O)NC(C(=O)O)C(C)(C)SN=O (configuration not stated) : reported normalized growth = ?
Ans. 0.991 (inactive)

Qu. Entry C#C[C@]1(O)CCC2C3CCC4=C(CCC(=O)C4)C3CC[C@@]21C (some centres not stated) : reported normalized growth = ?
Ans. 0.97 (inactive)

Qu. Entry CC(C)=CCCC1(C)C=Cc2c(O)c3c(c(CC=C(C)C)c2O1)OC12C(=CC4CC1C(C)(C)OC2(C/C=C(/C)C(=O)O)C4=O)C3=O (configuration not stated) : reported normalized growth = ?
Ans. 0.984 (inactive)

Qu. Entry "Cc1cc(O)ccc1Cl" : reported normalized growth = ?
Ans. 1.01 (inactive)

Qu. Entry C[C@@H]1OC(O[C@H]2C(O[C@H]3CC[C@@]4(C)C(CC[C@]5(C)C4CC=C4C6CC(C)(C)CC[C@]6(C(=O)O)CC[C@]45C)[C@]3(C)CO)OC[C@H](O)[C@@H]2O)[C@H](O)[C@H](O)[C@H]1O (some centres not stated) : reported normalized growth = ?
Ans. 0.0593 (active)
